Reference source for all entries: the supplement of paper PMC7877785

Experiment: self-splicing fitness, log relative to wild type (ln ratio); higher = more splicing; Tetrahymena group I intron in knt gene, E. coli kanamycin selection, DiMSum; sequences stand for … in CUCUCU…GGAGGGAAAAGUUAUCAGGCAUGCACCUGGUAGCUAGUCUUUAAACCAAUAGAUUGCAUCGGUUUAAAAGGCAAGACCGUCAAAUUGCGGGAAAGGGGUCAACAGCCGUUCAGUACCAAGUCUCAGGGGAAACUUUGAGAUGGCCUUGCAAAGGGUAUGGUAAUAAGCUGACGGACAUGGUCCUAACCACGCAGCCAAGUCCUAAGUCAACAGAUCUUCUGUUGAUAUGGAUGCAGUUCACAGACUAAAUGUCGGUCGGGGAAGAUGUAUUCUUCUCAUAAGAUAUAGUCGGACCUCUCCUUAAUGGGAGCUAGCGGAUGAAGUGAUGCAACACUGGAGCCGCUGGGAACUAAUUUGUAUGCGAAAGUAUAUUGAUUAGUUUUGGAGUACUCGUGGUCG;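 also: selection with 25 µg/mL kanamycin versus none on LB agar overnight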
Settings: 30 °C
METRIC NAME: self-splicing fitness (ln)
One number for each entry.

BIOSEQUENCE: GCAUAGCAAUAUUACGAGAA
self-splicing fitness (ln): -2.57
//
BIOSEQUENCE: GCCAAGCAAUAUUACGCAAG
self-splicing fitness (ln): -2.89
//
BIOSEQUENCE: UACUAGCAAUAUUACGGGGA
self-splicing fitness (ln): -1.37
//
BIOSEQUENCE: UGAUAGCAAUAUUACGAACG
self-splicing fitness (ln): -0.462
//
BIOSEQUENCE: GCUAAGCAAUAUUACGGAUU
self-splicing fitness (ln): -1.14

Fill in self-splicing fitness (ln) for each of the 6 sequences listed.
1. GCACAGCAAUAUUACGAUAU
2. AAUCAGCAAUAUUACGAACA
3. UGCCAGCAAUAUUACGCCGC
4. GUUUAGCAAUAUUACGUGGA
5. ACAUAGCAAUAUUACGGUAA
6. GUGUAGCAAUAUUACGGAUC

Reply:
-0.993
-0.526
-2.25
-2.48
-2.88
-1.04

Fill in self-splicing fitness (ln) for each of the 5 sequences listed.
1. CAUUAGCAAUAUUACGAUAC
2. AAAUAGCAAUAUUACGCCCG
3. AGUGAGCAAUAUUACGUCCA
4. UCGCAGCAAUAUUACGCGUC
5. GUUGAGCAAUAUUACGCUCC

Reply:
1. -3.07
2. -0.812
3. -2.89
4. -3.42
5. -1.81

* * *

Assay: self-splicing fitness, log relative to wild type (ln ratio); higher = more splicing; Tetrahymena group I intron in knt gene, E. coli kanamycin selection, DiMSum; sequences stand for … in CUCUCU…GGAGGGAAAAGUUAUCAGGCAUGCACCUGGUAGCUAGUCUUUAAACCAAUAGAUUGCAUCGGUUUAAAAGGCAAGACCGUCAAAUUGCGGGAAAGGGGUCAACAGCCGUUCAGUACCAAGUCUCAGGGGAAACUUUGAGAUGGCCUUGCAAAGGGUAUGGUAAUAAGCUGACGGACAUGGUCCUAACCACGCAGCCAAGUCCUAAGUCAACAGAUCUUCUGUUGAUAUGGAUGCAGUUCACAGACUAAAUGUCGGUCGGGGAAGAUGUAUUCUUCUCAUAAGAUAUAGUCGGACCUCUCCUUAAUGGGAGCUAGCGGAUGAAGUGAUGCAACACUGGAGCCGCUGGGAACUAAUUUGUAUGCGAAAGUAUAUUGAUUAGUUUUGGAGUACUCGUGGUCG
Settings: 37 °C
Answer each item with its documented self-splicing fitness (ln).
Answers are plain numbers.

BIOSEQUENCE: CAUUAGCAAUAUUACGUGGU
self-splicing fitness (ln): -2.6

BIOSEQUENCE: GCUUAGCAAUAUUACGCUCC
self-splicing fitness (ln): -1.09

BIOSEQUENCE: AAUAAGCAAUAUUACGGCAG
self-splicing fitness (ln): -0.547

Fill in self-splicing fitness (ln) for each of the 4 sequences listed.
1. ACGUAGCAAUAUUACGAACC
2. UUCGAGCAAUAUUACGCUCU
3. ACGUAGCAAUAUUACGAGAG
4. AGGAAGCAAUAUUACGGGGG

Reply:
1. -0.279
2. -2.43
3. -2.97
4. -1.89
